- EXPERIMENT SUMMARY: Cytotoxicity against Homo sapiens (human) PN-5C-12 at 100 ug after 72 hr by MTT assay
- PARTICULARS: in vitro
Classification field: 1 = Activity at or over 60%; 0 = Activity under 60%.

Please review the following examples before continuing.
- COc1ccc(C(=O)/C=C/c2c(OC)cc(OC)c(C3=CCN(C)CC3)c2OC)cc1OC: 1
- CN(Cc1cnc2nc(N)nc(N)c2n1)c1ccc(C(=O)N[C@@H](CCC(=O)O)C(=O)O)cc1 [METHOTREXATE]: 0
- COc1cc(OC)c(C2=CCN(C)CC2)c(OC)c1/C=C/C(=O)c1ccc(Br)cc1: 1
- COc1ccccc1C(=O)/C=C/c1c(OC)cc(OC)c(C2=CCN(C)CC2)c1OC: 0
- COc1ccc(C(=O)/C=C/c2c(OC)cc(OC)c(C3=CCN(C)CC3)c2OC)c(OC)c1: 0

Say whether `COc1cc(OC)c(C2=CCN(C)CC2)c(OC)c1/C=C/C(=O)c1ccc(Cl)c(Cl)c1` shows Activity of 60% or more.
1

Entry `COc1cc(OC)c(C2=CCN(C)CC2)c(OC)c1/C=C/C(=O)c1ccc[nH]1` please
0

Entry `COc1cc(OC)c(C2=CCN(C)CC2)c(OC)c1/C=C/C(=O)c1ccc(C)cc1` please
0

Entry `COc1cc(OC)c(C2=CCN(C)CC2)c(OC)c1/C=C/C(=O)c1ccc(Cl)cc1` please
1

====

zone of inhibition at 100 µg/disc by entry:
- Test system: Staphylococcus aureus
- EXPERIMENT SUMMARY: Antimicrobial activity against Staphylococcus aureus MTCC 96 at 100 ug after 24 hr by agar disk diffusion method
- Assay type: functional
- PARTICULARS: MTCC 96, 24 h, read-out: DIZ
Give the quantity in mm, number only.

Completed entries (count: 5):
• COc1cc(O)c(C(=O)/C=C/c2c(OC)cc(OC)c(C3=CCN(C)CC3)c2OC)c(OC)c1 = 1.5
• COc1ccccc1C(=O)/C=C/c1c(OC)cc(OC)c(C2=CCN(C)CC2)c1OC = 2.5
• COc1ccc(OC)c(C(=O)/C=C/c2c(OC)cc(OC)c(C3=CCN(C)CC3)c2OC)c1 = 5
• COc1ccc(C(=O)/C=C/c2c(OC)cc(OC)c(C3=CCN(C)CC3)c2OC)cc1OC = 0.5
• COc1cc(OC)c(C2=CCN(C)CC2)c(OC)c1/C=C/C(=O)c1ccc(F)c(F)c1 = 2.5

Which zone of inhibition at 100 µg/disc is reported with Staphylococcus aureus for this entry: `COc1cc(OC)c(C2=CCN(C)CC2)c(OC)c1/C=C/C(=O)c1cc(Cl)ccc1Cl` ?
1.5

Entry `COc1ccc(C(=O)/C=C/c2c(OC)cc(OC)c(C3=CCN(C)CC3)c2OC)c(OC)c1` please
2.5

Entry `COc1cc(OC)c(C2=CCN(C)CC2)c(OC)c1/C=C/C(=O)c1ccc(Br)cc1` please
0.5

Entry `COc1ccc(C(=O)/C=C/c2c(OC)cc(OC)c(C3=CCN(C)CC3)c2OC)cc1` please
2.5

====

- EXPERIMENT SUMMARY: Cytotoxicity against Homo sapiens (human) PN-5C-12 at 100 ug after 72 hr by MTT assay
- PARTICULARS: in vitro
RESULT TYPE: Activity (%)
Give the quantity in %, number only.

Completed entries (count: 5):
* COc1cc(OC)c(C2=CCN(C)CC2)c(OC)c1/C=C/C(=O)c1ccc(F)cc1 | 69.43
* COc1cc(O)c(C(=O)/C=C/c2c(OC)cc(OC)c(C3=CCN(C)CC3)c2OC)c(OC)c1 | 44.13
* COc1ccc(OC)c(C(=O)/C=C/c2c(OC)cc(OC)c(C3=CCN(C)CC3)c2OC)c1 | 41.1
* COc1cc(OC)c(C2=CCN(C)CC2)c(OC)c1/C=C/C(=O)c1ccc(Cl)cc1Cl | 50.98
* COc1cc(OC)c(C2=CCN(C)CC2)c(OC)c1/C=C/C(=O)c1cccs1 | 67.19

What measured Activity goes with `COc1cc(OC)c(C2=CCN(C)CC2)c(OC)c1/C=C/C(=O)c1ccc(N)cc1` ?
49.67

Entry `COc1cc(OC)c(C2=CCN(C)CC2)c(OC)c1/C=C/C(=O)c1cc(Cl)ccc1Cl` please
60.47

The measurements presented in this section are drawn from ChEMBL document CHEMBL3046962.
